Biological target: Sigma-2 receptor
Experiment: Sigma-2 receptor competitive radioligand binding assay
Conditions: read-out: Sigma-2 Receptor Affinity, Ki
pKi: −log10 of the molar value.
Please note: yes (1) applies when pKi is 8 or greater, and no (0) applies otherwise.

Please tell me: is the compound COc1cccc(CCC(C)(C)n2cc3ccc(S(C)(=O)=O)cc3c2)c1 at or over 8 in terms of pKi? no (0)

Please tell me: is the compound COCCN(C)C(=O)c1cccc2c1CN(C(C)(C)CCc1ccc(O)c(OC)c1)C2 at or over 8 in terms of pKi? no (0)

Please tell me: is the compound CC(C)(C)Oc1cc(CCC(C)(C)N2Cc3cccc(S(C)(=O)=O)c3C2)ccc1O at or over 8 in terms of pKi? yes (1)

Please tell me: is the compound COCCNC(=O)c1cccc2c1CN(C(C)(C)CCc1ccc(O)c(OC)c1)C2 at or over 8 in terms of pKi? no (0)

Please tell me: is the compound CC(C)(CCc1ccc(F)cc1)N1Cc2ccc(F)cc2C1 at or over 8 in terms of pKi? yes (1)

Please tell me: is the compound CC(C)Oc1cc(CC[C@@H](C)N2Cc3ccc(S(C)(=O)=O)cc3C2)ccc1O at or over 8 in terms of pKi? no (0)

Please tell me: is the compound COc1cc(CCC(C)(C)N2Cc3cccc(N4CCNCC4)c3C2)ccc1O at or over 8 in terms of pKi? no (0)

Please tell me: is the compound C[C@H](CCc1ccc(O)c(OC(C)(C)C)c1)N1Cc2ccc(S(C)(=O)=O)cc2C1 at or over 8 in terms of pKi? no (0)

Please tell me: is the compound COc1cc(CC[C@@H](C)N2Cc3cc(Cl)c(Cl)cc3C2)ccc1O at or over 8 in terms of pKi? no (0)

Please tell me: is the compound CC(C)(CCc1ccc(O)c(OC(F)(F)F)c1)N1Cc2c(F)ccc(F)c2C1 at or over 8 in terms of pKi? no (0)

Here is the next item to consider.
Please tell me: is the compound C[C@H](CCc1ccc(Cl)c(Cl)c1)N1Cc2cc(Cl)c(Cl)cc2C1 at or over 8 in terms of pKi? yes (1)

Sourced from patent US9796672B2
